Overview of reported growth inhibition across a group of molecules:
Procedure Summary: NCI Yeast Anticancer Drug Screen. Data for the rad14 strain (AID 159);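 note: 0% = growth of vehicle-treated control cultures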
Particulars: S. cerevisiae rad14 strain growth inhibition; at 33.0 µM; active compounds read high
Compounds without any hit were thinned out: in the full panel of roughly 79,000, 15% have a hit.
Your answer is read as %, so omit the unit and give the number.

Here is how some molecules turned out for growth inhibition.
Molecule	Metric	Unit	Value Reported
Cc1c(C)c(C)c(CSC(=N)N)c(C)c1C	growth inhibition	%	85
C=C1CC(CCCl)(c2ccccc2)OC1=O (stereo not given)	growth inhibition	%	95
CCc1c[n+]([O-])c(C)cc1[N+](=O)[O-]	growth inhibition	%	94
CCCCCCCCCCCCCCCCOP(=O)(O)OCC(N)C(=O)O (stereo not given)	growth inhibition	%	98
CN(C)Cc1cc(N=Nc2ccc(Cl)cc2)ccc1OC(=O)c1ccccc1	growth inhibition	%	14

Item: COC(=O)/C=C(/CC(=O)OC)C(=O)OC | growth inhibition: 3

Item: COc1ccc(C2C3=C(COC3=O)OC(C)(C)Oc3cc4c(cc32)OCO4)cc1OC (stereo not given) | growth inhibition: 30

----------
Procedure Summary: NCI Yeast Anticancer Drug Screen. Data for the mec2-1 strain (AID 157)
Particulars: S. cerevisiae mec2-1 strain, at 50.0 µM (retest, dose inferred, filed as 5.0), active compounds read high
Protocol: Growth inhibition of yeast strains with defined genetic alterations is measured as a screen for potential anti-cancer activity. Selected strains with alterations in DNA damage repair or cell cycle control were exposed to compounds and growth inhibition was measured relative to vehicle treated controls. The strain used in this assay is mec2-1
About 79,000 compounds went through this panel and 15% of them were active in at least one assay; those are over-represented in the sample as a whole. Activity calls are given as the source filed them. No stated cut-off is given here; in the data, active means growth inhibition above about 70%; inactive means the rest.
Overview of reported growth inhibition across a group of compounds:

Item: CCOC(=O)c1[nH]cc(C)c1-c1cccn1-c1ccc(Cl)cc1[N+](=O)[O-] | growth inhibition: 48% (inactive)

----------
Procedure Summary: NCI Yeast Anticancer Drug Screen. Data for the sgs1 mgt1 strain (AID 161);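 note: 0% = growth of cultures given vehicle only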
Particulars: S. cerevisiae sgs1 mgt1 strain, at 50.0 µM (retest, dose inferred, filed as 5.0), active compounds read high
Experimental: Growth inhibition of yeast strains with defined genetic alterations is measured as a screen for potential anti-cancer activity. Selected strains with alterations in DNA damage repair or cell cycle control were exposed to compounds and growth inhibition was measured relative to vehicle treated controls. The strain used in this assay is sgs1 mgt1
The panel holds about 79,000 compounds, 15% with a hit somewhere; the sample as a whole holds those more often.
Metric: growth inhibition (%)
Your answer is read as %, so omit the unit and give the number.

Compound	growth inhibition [%]
O=P(NC1CCCCC1)(OCc1ccccc1)OCc1ccccc1	7
O=C1CC(=O)c2ccccc21	12
COc1ccc(NC(=O)CC2SC(=Nc3ccccc3C)NC2=O)c([N+](=O)[O-])c1 (configuration not stated)	74

Item: COc1cc(C2SCC(=O)N2c2ccc(-c3ccc(-n4c(-c5ccccc5)nc5ccccc5c4=O)cc3)cc2)ccc1O (configuration not stated) | growth inhibition: 31

Item: CCOC(=O)C(Br)C(Br)c1ccccc1Cl (configuration not stated) | growth inhibition: 99

----------
Procedure Summary: NCI Yeast Anticancer Drug Screen. Data for the CLN2oe strain (AID 163);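 note: 0% = growth of vehicle-only control cultures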
Particulars: S. cerevisiae CLN2oe strain, at 3.7 µM, active compounds read high
This is part of a sample that, as a whole, favours compounds with a hit. Of some 79,000 tested, about 15% had one in any assay.
Metric: growth inhibition (%)
Your answer is read as %, so omit the unit and give the number.

Molecule	Metric	Value Reported
CCOC(=O)c1[nH]cc(C)c1-c1cccn1-c1ccc(Cl)cc1[N+](=O)[O-]	growth inhibition	-16
N/C(=N/N=C/c1cc(Br)cc(Br)c1O)NO	growth inhibition	-11
COC(C(O)CO)C(O)C(O)C(=O)NNc1ccccc1 (stereo not given)	growth inhibition	7
CCC(C)NC1=NCC(C)S1 (stereo not given)	growth inhibition	1

Item: O=C(/C=C/c1cc(Cl)cc(Cl)c1O)c1cccc(O)c1 | growth inhibition: 23

Item: O=[N+]([O-])c1cccc2nc3ccccc3c(NCCC[N+]3([O-])CCCCC3)c12 | growth inhibition: -5

----------
Overview of reported growth inhibition across a group of compounds:
Procedure Summary: NCI Yeast Anticancer Drug Screen. Data for the cln2 rad14 strain (AID 165);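 note: 0% = growth equal to vehicle treated cultures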
Particulars: S. cerevisiae cln2 rad14 strain, at 50.0 µM (retest, dose inferred, filed as 5.0), active compounds read high
About 79,000 compounds went through this panel and 15% of them were active in at least one assay; those are over-represented in the sample as a whole.
Your answer is read as %, so omit the unit and give the number.

Here is how some compounds turned out for growth inhibition.
Compound	growth inhibition, %
COC(=O)C1=C(C(=O)OC)C(C(=O)OC)C(C(=O)OC)C(C(=O)OC)(C(=O)OC)C(C(=O)OC)=C1C(=O)OC (centres undefined)	97
COc1cc2ccnc(-c3c4ccccc4c(N)c4c(OC)c(OC)ccc34)c2cc1OC	22
CCOC(=O)COc1c(OC)cc(C2C3=C(COC3=O)Oc3cc4c(cc32)OCO4)cc1OC (centres undefined)	29
CCCOC(=O)C(F)C(Br)C(=O)OCCC (centres undefined)	70
CN(C)CCNc1ccc2ncnc3c2c1C(=O)c1ccccc1-3	51
CN(C)CCOC1(Cc2ccc(Cl)cc2Cl)CCC(C(C)(C)C)CC1 (centres undefined)	100
Cc1cc2c(cc1C)[n+]([O-])c(-c1nc3ccccc3s1)c(N)[n+]2[O-]	41
C[C@]12CC[C@H](O)CC1=CC[C@@H]1C2CC[C@]2(C)C(=O)NC(=O)CC12 (some centres undefined)	80

// moving on: another record for growth inhibition
Item: c1ccc2c(c1)sc1c3cnccc3ccc21 | growth inhibition: -26

----------
Procedure Summary: NCI Yeast Anticancer Drug Screen. Data for the rad52 strain (AID 147);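 note: 0% = growth of vehicle-treated control cultures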
Particulars: S. cerevisiae rad52 mutant growth inhibition; at 3.7 µM
About 79,000 compounds went through this panel and 15% of them were active in at least one assay; those are over-represented in the sample as a whole. The source made the active and inactive calls. No stated cut-off is given here; in the data, active means growth inhibition above about 70%; inactive means the rest.
Hi there, use one of these labels in your reply, thanks! active, inactive

Molecule	Class Label
N#CC(C#N)=NNc1ccc(S(=O)(=O)O)cc1	inactive
O=[N+]([O-])c1cccc2nc3ccccc3c(NCCC[N+]3([O-])CCCCC3)c12	inactive
CC(C)(C)CC(C)(C)c1cc(O)c(O)c(CN2CCCCC2)c1	inactive
COC(=O)/C=C(/C(=O)OC)C(Cl)(Cl)Cl	inactive
CCCCCCC(O)CNCc1ccnc2ccc(OC)cc12 (configuration not stated)	inactive
O=C1Nc2ccccc2/C1=C/c1ccccc1	inactive

Prompt: Record request — test call for Cc1cc2cc3cc(C)c(N)cc3nc2cc1N
Completion: inactive

Prompt: Record request — test call for CC(=O)ON=C1C=CC(=C(C#N)c2ccc(Cl)cc2)C=C1
Completion: inactive

Prompt: Record request — test call for CC[N+](CC)(CC)c1ccccc1
Completion: inactive

Prompt: Record request — test call for CC1OC(O[C@H]2/C=C/C=C/C=C/C=C/C=C/C=C/C=C/[C@H](C)[C@@H](O)[C@@H](C)[C@H](C)OC(=O)C[C@H](O)C[C@H](O)CC[C@@H](O)[C@H](O)C[C@H](O)C[C@]3(O)C[C@H](O)[C@@H](C(=O)O)[C@H](C2)O3)C(O)C(N)C1O (some centres not stated)
Completion: inactive

Prompt: Record request — test call for CCC1(OC(=O)CN2CCN(CCO)CC2)C(=O)OCc2c1cc1n(c2=O)Cc2cc3ccccc3nc2-1 (configuration not stated)
Completion: inactive

Prompt: Record request — test call for Oc1ccc(O)c(Cc2ccccc2)c1
Completion: inactive

Prompt: Record request — test call for CCCC(=O)Oc1c(C)cc([N+](=O)[O-])cc1[N+](=O)[O-]
Completion: inactive

----------
Procedure Summary: NCI Yeast Anticancer Drug Screen. Data for the mlh1 strain (AID 171);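 note: 0% = growth of vehicle-treated control cultures of the same strain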
Particulars: S. cerevisiae mlh1 strain growth inhibition; at 100.0 µM
Compounds without any hit were thinned out: in the full panel of roughly 79,000, 15% have a hit. Activity calls are given as the source filed them. Rule as the data show it: active = growth inhibition above about 70%; inactive = the rest.
Hi there, use one of these labels in your reply, thanks! active, inactive

Worked examples, 5 molecules total:
Molecule	Class Label
CCCCCCOC(=O)NCCOC(=O)Nc1ccccc1	inactive
O=C(COC(=O)c1ccccc1)c1ccc(Br)cc1	active
Nc1ncc(-c2ccc(Br)cc2)s1	active
COc1ccc(/C=C/c2sc3ccccc3[n+]2CCCCI)cc1OC	active
CC(C)C(C)/C=C\C(C)C1CCC2C3=CC=C4CC(O)CCC4(C)C3CCC21C (stereo not drawn)	inactive

Continue with the molecule presented below.
Prompt: Record request — test call for Cc1ccc(S/C(=C\C(=O)O)c2ccccc2)cc1
Completion: inactive

----------
Overview of reported growth inhibition across a group of molecules:
Procedure Summary: NCI Yeast Anticancer Drug Screen. Data for the CLN2oe strain (AID 163);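 note: 0% = growth of vehicle-only control cultures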
Particulars: S. cerevisiae CLN2oe strain, at 1.2 µM, active compounds read high
Method: Growth inhibition of yeast strains with defined genetic alterations is measured as a screen for potential anti-cancer activity. Selected strains with alterations in DNA damage repair or cell cycle control were exposed to compounds and growth inhibition was measured relative to vehicle treated controls. The strain used in this assay is CLN2oe
The panel holds about 79,000 compounds, 15% with a hit somewhere; the sample as a whole holds those more often.
Your answer is read as %, so omit the unit and give the number.

Here is how some molecules turned out for growth inhibition.
Molecule	Unit	growth inhibition
CCc1cc(O)c(Cl)c(C)c1Cl	%	18
O=C1Nc2ccccc2/C1=C/c1ccccc1	%	-9
CCCC/C=C/C(C)(C(=O)OCC)C(=O)OCC	%	-3
O=C1c2cccnc2C(=O)C2C3C=CC(C3)C12 (configuration not stated)	%	10
CCOC1(c2cccc([N+](=O)[O-])c2)c2ccccc2Oc2ccccc21	%	-6
O=[N+]([O-])c1cc(S(=O)(=O)Nc2ccccc2)ccc1Nc1ccccc1	%	14
Oc1ccc(O)c(Cc2ccccc2)c1	%	3
CN(C)/C=C/c1nnc([N+](=O)[O-])s1	%	-2
CCCC(=O)Oc1c(C)cc([N+](=O)[O-])cc1[N+](=O)[O-]	%	-11
O=C(NNc1ccccc1)c1ccc(Cl)c(Cl)c1	%	-7

Item: COC(=O)Nc1cn2ccc(C(Cl)=C(Cl)Cl)cc2n1 | growth inhibition: 42

Item: Clc1ccc(NCNC2Nc3ccccc3N2)cc1Cl | growth inhibition: -5

Item: COc1cc([C@@H]2c3cc4c(cc3[C@H](OC3OC5COC(C(C)C)OC5C(O)C3O)C3COC(=O)[C@@H]32)OCO4)cc(OC)c1O (some centres not stated) | growth inhibition: -3

Item: COC(C(O)CO)C(O)C(O)C(=O)NNc1ccccc1 (configuration not stated) | growth inhibition: 8

Item: O=[n+]1c2ccccc2n([O-])c2cc(Br)ccc21 | growth inhibition: 6

Item: CN(C)C=NC1CCC(C(C)(C)C)CC1 (configuration not stated) | growth inhibition: 1

Item: COC(=O)/C=C(/CC(=O)OC)C(=O)OC | growth inhibition: 0

Item: Nc1nc(N)c2nc(CNc3ccc(C(=O)NC(CCC(=O)O)C(=O)O)cc3F)cnc2n1 (configuration not stated) | growth inhibition: -8

Item: O=c1ccc(=O)n(-c2ccccc2)[nH]1 | growth inhibition: 7

Item: COc1ccc(C2C3=C(COC3=O)OC(C)(C)Oc3cc4c(cc32)OCO4)cc1OC (configuration not stated) | growth inhibition: 11

Item: COC(=O)CC1(O)C(/C=C/c2ccccc2)C(C(=O)OC)C(=O)C(C(=O)OC)C1C(=O)OC (configuration not stated) | growth inhibition: -2

Item: Oc1cccc2cc(Cl)cnc12 | growth inhibition: 5

Item: C/C(=N\Nc1ccc([N+](=O)[O-])cc1[N+](=O)[O-])c1sc(-n2nc(-c3ccccc3)cc2-c2ccccc2)nc1C | growth inhibition: 8

Item: CC12C(=O)OC(=O)C(c3ccccc31)c1ccccc12 | growth inhibition: -9
